Where do these numbers come from? They come from the kinase profiling compilation of Christmann-Franck et al. (2016).

# testSystem: STK11 (human) (UniProt Q15831)
# Sequence (Q15831 whole entry, looked up): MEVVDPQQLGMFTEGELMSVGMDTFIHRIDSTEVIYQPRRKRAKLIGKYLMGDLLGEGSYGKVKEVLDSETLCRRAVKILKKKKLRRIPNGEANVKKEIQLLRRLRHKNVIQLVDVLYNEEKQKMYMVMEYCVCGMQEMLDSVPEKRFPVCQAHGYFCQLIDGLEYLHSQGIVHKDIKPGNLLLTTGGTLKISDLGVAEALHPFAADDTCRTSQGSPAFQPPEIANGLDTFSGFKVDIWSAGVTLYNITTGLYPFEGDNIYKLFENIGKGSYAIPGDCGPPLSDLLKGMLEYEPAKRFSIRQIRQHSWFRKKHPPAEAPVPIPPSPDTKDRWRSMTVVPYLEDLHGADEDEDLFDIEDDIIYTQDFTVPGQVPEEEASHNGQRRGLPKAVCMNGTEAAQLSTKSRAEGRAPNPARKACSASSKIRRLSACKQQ
# assay: radiometric filter-binding kinase assay, Kinase HotSpot
# assayConditions: compound 0.5 µM; ATP 10 µM
observable: residual activity
Write the quantity with the unit trailing the number.

Prompt line: Report residual activity, nothing else, for this molecule: O=C1Nc2cc(Br)ccc2/C1=C1/Nc2ccccc2/C1=N\O
Response line: 42.1%

Prompt line: Determine from records and report residual activity for NC(=O)c1ccc(N(C(N)=O)c2c(F)cccc2F)nc1-c1ccc(F)cc1F
Response line: 99.5%

Prompt line: Report measured residual activity; entry is Clc1ccc(Nc2nnc(Cc3ccncc3)c3ccccc23)cc1
Response line: 97.3%

Prompt line: # return recorded residual activity for entry O=C(NC(NC(=S)Nc1ccc(F)c([N+](=O)[O-])c1)C(Cl)(Cl)Cl)C(c1ccccc1)c1ccccc1 (configuration not stated)
Response line: 94.2%

Prompt line: Specify measured residual activity for Nc1n[nH]c2nnc(-c3c(-c4ccccc4)nn4ccccc34)cc12 .
Response line: 91.8%

Prompt line: Give residual activity for the following molecule: CC(C)n1cnc2c(Nc3cccc(Cl)c3)nc(NCCO)nc21
Response line: 76.1%

Prompt line: Provide one value: measured residual activity of Nc1nc(Nc2ccc(S(N)(=O)=O)cc2)nn1C(=O)c1c(F)cccc1F
Response line: 85.8%

Prompt line: Quickly give me recorded residual activity for CS(=O)c1ccc(-c2nc(-c3ccc(F)cc3)c(-c3ccncc3)[nH]2)cc1 (configuration not stated)
Response line: 81.6%

Prompt line: Determine from records and report residual activity for Oc1ccc(-c2nc(-c3ccc(F)cc3)c(-c3ccncc3)[nH]2)cc1
Response line: 93.1%

Prompt line: Note residual activity for the molecule shown: Cc1cc2ncc(-c3ccccc3)nc2cc1C
Response line: 94%

Prompt line: Respond only with residual activity recorded for O=c1cc(-c2cccc3c2Sc2ccccc2S3)oc(N2CCOCC2)c1
Response line: 96.5%

Prompt line: Return residual activity (reported value) for this molecule: Cc1ccc(NC(=O)c2ccc(CN3CCN(C)CC3)cc2)cc1Nc1nc(-c2cccnc2)cs1
Response line: 102%

====

# testSystem: CSNK2A2 (human) (UniProt P19784)
# Sequence (P19784 whole entry, looked up): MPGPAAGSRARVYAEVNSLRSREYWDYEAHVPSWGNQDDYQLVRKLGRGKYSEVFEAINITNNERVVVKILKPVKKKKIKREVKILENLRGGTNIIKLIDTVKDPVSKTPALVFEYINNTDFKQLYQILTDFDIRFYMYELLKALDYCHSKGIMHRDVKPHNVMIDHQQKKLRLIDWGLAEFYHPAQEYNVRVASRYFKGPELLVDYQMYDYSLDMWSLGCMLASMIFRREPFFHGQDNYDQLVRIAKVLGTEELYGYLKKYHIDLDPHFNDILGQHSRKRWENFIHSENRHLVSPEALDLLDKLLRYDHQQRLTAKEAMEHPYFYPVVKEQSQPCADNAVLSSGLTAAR
# assay: radiometric filter-binding kinase assay, Kinase HotSpot
# assayConditions: compound 0.5 µM; ATP 10 µM
observable: residual activity (%)
Express the result in % but write the number alone.

Prompt line: Note residual activity for the compound shown: COc1ccc(-c2cnc3c(-c4ccsc4)cnn3c2)cc1
Response line: 87.3

Prompt line: Identify the reported residual activity for the following entry. O=C1Nc2cc(Br)ccc2/C1=C1/Nc2ccccc2/C1=N\O
Response line: 63.1

Prompt line: Write down residual activity measured for item O=C(Nc1ccc(Cl)cc1)c1ccccc1NCc1ccncc1
Response line: 98.3

Prompt line: Look up and report measured residual activity for this entry: Nc1n[nH]c2nnc(-c3c(-c4ccccc4)nn4ccccc34)cc12
Response line: 93.4

Prompt line: Report measured residual activity; entry is CCN1/C(=C/C(C)=O)Sc2ccc(OC)cc21
Response line: 89.7

Prompt line: // Input: COc1cc2ncnc(Nc3ccc(F)c(Cl)c3)c2cc1OCCCN1CCOCC1 . Output its residual activity only.
Response line: 88.6

Prompt line: Give the reported residual activity for this compound. CC(C)[C@H](CO)Nc1nc(Nc2cccc(Cl)c2)c2ncn(C(C)C)c2n1
Response line: 93.2

====

# testSystem: CSNK1D (human)
# assay: radiometric filter-binding kinase assay, Kinase HotSpot
# assayConditions: compound 0.5 µM; ATP 10 µM
I'd appreciate it if you could supply residual activity values for the items below.
Numbers only here, please. The scale is %.

Prompt line: Tell me measured residual activity for O=C(Nc1ccc(Cl)cc1)c1ccccc1NCc1ccncc1 please.
Response line: 98.1

Prompt line: For the compound CC(C)[C@H](CO)Nc1nc(Nc2cccc(Cl)c2)c2ncn(C(C)C)c2n1 , report residual activity.
Response line: 92.2

Prompt line: Respond only with residual activity recorded for NC(=O)c1ccc(N(C(N)=O)c2c(F)cccc2F)nc1-c1ccc(F)cc1F
Response line: 89.8

Prompt line: Please supply the value of reported residual activity for the item CC(C)n1cnc2c(Nc3cccc(Cl)c3)nc(NCCO)nc21
Response line: 48.5

Prompt line: Write down residual activity measured for item O=c1cc(N2CCNCC2)oc2c(-c3ccccc3)cccc12
Response line: 99.5

Prompt line: Note down residual activity recorded for COc1cc2nccc(Oc3ccc(NC(=S)NC(=O)c4ccccc4C)cc3)c2cc1OC
Response line: 212

Prompt line: Find the measured residual activity of CC(C)(C)c1nc2c3ccc(F)cc3c3c(=O)[nH]ccc3c2[nH]1 and report it.
Response line: 89.1

====

Hi there, I'd appreciate the recorded residual activity for every entry that follows.
# testSystem: UniProt P32298
# Sequence (P32298 whole entry, looked up): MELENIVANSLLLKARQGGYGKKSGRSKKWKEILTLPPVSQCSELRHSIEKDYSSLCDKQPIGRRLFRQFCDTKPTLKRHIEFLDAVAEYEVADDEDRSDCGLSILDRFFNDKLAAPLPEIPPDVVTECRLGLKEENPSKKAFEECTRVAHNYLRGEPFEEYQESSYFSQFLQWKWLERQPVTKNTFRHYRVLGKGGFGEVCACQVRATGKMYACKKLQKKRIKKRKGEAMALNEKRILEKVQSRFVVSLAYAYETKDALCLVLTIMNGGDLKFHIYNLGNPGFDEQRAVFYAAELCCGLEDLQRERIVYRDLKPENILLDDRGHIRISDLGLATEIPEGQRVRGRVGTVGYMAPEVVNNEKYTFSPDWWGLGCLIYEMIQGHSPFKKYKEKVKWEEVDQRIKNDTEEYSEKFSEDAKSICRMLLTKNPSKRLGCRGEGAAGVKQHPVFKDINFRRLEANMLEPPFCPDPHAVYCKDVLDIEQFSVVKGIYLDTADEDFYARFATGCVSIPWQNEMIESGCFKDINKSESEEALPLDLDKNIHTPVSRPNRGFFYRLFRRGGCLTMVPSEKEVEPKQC
# assay: radiometric filter-binding kinase assay, Kinase HotSpot
# assayConditions: compound 0.5 µM; ATP 10 µM
Please reply with the bare figure in % and do not write the unit itself.

Prompt line: Look up and state reported residual activity for Oc1ccc(-c2nc(-c3ccc(F)cc3)c(-c3ccncc3)[nH]2)cc1
Response line: 98.5

Prompt line: Fill in reported residual activity for this entry: CCCNC(=O)Nc1ccc(Oc2ncnc3cc(OC)c(OC)cc23)cc1Cl
Response line: 94.4

Prompt line: Return reported residual activity. Input compound: O=c1cc(-c2cccc3c2Sc2ccccc2S3)oc(N2CCOCC2)c1
Response line: 105

Prompt line: Recall and state the measured residual activity for C#Cc1cccc(Nc2ncnc3cc(OCCOC)c(OCCOC)cc23)c1 .
Response line: 89.6

Prompt line: Complete the entry with residual activity for O=C1Cc2c([nH]c3ccc([N+](=O)[O-])cc23)-c2ccccc2N1
Response line: 99.3

====

# testSystem: CDK1 CCNA2 (human) (UniProt P06493+P20248)
# Sequence (P06493 whole entry, looked up): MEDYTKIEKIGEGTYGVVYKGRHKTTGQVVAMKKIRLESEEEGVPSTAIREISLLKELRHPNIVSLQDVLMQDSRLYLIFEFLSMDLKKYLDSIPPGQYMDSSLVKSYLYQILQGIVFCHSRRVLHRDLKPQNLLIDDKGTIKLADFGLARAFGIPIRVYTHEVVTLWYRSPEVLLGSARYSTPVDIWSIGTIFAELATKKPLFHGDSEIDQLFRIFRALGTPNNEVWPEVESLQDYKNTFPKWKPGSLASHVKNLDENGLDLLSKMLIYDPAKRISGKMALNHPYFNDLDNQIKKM
# Sequence (P20248 whole entry, looked up): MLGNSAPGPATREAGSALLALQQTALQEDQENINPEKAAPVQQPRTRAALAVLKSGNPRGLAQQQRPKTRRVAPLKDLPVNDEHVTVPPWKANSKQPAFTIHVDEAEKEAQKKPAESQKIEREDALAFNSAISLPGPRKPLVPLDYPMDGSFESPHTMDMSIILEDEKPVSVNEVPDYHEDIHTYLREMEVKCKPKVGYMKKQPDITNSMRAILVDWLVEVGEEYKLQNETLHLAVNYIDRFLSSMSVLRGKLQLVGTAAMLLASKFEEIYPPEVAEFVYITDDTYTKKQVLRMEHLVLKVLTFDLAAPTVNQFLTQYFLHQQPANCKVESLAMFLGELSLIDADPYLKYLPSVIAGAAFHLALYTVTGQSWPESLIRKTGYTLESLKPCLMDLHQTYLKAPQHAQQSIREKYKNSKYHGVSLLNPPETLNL
# assay: radiometric filter-binding kinase assay, Kinase HotSpot
# assayConditions: compound 0.5 µM; ATP 10 µM
Exercise: state measured residual activity for each of the compounds provided.
Kindly answer with a numeric value in %, unit omitted.

Prompt line: Name the recorded residual activity of Oc1ccc(-c2nc(-c3ccc(F)cc3)c(-c3ccncc3)[nH]2)cc1 , assay system CDK1 CCNA2 (human) (UniProt P06493+P20248).
Response line: 90.9

Prompt line: Provide residual activity, system CDK1 CCNA2 (human) (UniProt P06493+P20248), entry O=C(NC(NC(=S)Nc1ccc(F)c([N+](=O)[O-])c1)C(Cl)(Cl)Cl)C(c1ccccc1)c1ccccc1 (stereo not given)
Response line: 101

Prompt line: # lookup: CDK1 CCNA2 (human) (UniProt P06493+P20248) residual activity, key = Cc1ccc(NC(=O)c2ccc(CN3CCN(C)CC3)cc2)cc1Nc1nc(-c2cccnc2)cs1
Response line: 98

Prompt line: Provide residual activity, recorded with CDK1 CCNA2 (human) (UniProt P06493+P20248), of COc1ccc(-c2cnc3c(-c4ccsc4)cnn3c2)cc1
Response line: 87.4

Prompt line: Param request: residual activity | system CDK1 CCNA2 (human) (UniProt P06493+P20248) | item Nc1nc(Nc2ccc(S(N)(=O)=O)cc2)nn1C(=S)Nc1c(F)cccc1F
Response line: -0.154

====

Please respond with reported residual activity for every item in the list.
# testSystem: KIT (human) (UniProt P10721)
# Sequence (P10721 whole entry, looked up): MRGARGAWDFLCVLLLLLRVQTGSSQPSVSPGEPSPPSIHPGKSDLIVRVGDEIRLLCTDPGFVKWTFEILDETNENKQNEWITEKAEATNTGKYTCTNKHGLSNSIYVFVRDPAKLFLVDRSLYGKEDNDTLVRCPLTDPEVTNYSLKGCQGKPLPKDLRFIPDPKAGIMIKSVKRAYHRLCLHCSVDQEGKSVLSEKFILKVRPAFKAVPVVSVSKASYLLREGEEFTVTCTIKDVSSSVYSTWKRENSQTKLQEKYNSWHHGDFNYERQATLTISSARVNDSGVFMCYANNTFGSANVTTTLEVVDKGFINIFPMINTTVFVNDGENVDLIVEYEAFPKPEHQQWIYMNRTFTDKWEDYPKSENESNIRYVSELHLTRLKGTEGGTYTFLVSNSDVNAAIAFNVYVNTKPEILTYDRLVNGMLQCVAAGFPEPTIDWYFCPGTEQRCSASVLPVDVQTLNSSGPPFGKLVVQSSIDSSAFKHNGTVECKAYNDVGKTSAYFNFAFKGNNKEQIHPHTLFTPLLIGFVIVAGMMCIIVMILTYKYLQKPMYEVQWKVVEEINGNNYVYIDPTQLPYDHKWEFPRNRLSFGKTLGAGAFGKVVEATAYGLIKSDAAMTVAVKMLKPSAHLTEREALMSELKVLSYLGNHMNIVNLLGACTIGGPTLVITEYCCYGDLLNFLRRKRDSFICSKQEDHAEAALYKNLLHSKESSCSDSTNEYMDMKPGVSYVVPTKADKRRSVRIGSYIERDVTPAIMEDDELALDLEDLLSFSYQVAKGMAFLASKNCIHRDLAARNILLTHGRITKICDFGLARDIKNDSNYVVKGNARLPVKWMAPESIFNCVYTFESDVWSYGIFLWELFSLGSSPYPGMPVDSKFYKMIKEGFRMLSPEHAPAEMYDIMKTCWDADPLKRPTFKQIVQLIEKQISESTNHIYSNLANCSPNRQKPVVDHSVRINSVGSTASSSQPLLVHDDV
# assay: radiometric filter-binding kinase assay, Kinase HotSpot
# assayConditions: compound 0.5 µM; ATP 10 µM
# do not omit the unit; it follows the number

Prompt line: Given the compound CC(C)[C@H](CO)Nc1nc(Nc2cccc(Cl)c2)c2ncn(C(C)C)c2n1 , write its reported residual activity.
Response line: 91%

Prompt line: Using known records, supply residual activity for CS(=O)c1ccc(-c2nc(-c3ccc(F)cc3)c(-c3ccncc3)[nH]2)cc1 (centres undefined)
Response line: 91.3%

Prompt line: Given the compound CSc1nc(-c2ccc(F)cc2)c(-c2ccnc(NC(C)c3ccccc3)c2)[nH]1 (centres undefined) , write its reported residual activity.
Response line: 92.4%

Prompt line: Specify residual activity for O=C1Nc2ccccc2/C1=C\c1c(Cl)[nH]c2ccccc12 and stop.
Response line: 90.2%

====

Field: residual activity. Provide a value for each of the compounds that follow.
# testSystem: UniProt:Q7L7X3
# Sequence (Q7L7X3 whole entry, looked up): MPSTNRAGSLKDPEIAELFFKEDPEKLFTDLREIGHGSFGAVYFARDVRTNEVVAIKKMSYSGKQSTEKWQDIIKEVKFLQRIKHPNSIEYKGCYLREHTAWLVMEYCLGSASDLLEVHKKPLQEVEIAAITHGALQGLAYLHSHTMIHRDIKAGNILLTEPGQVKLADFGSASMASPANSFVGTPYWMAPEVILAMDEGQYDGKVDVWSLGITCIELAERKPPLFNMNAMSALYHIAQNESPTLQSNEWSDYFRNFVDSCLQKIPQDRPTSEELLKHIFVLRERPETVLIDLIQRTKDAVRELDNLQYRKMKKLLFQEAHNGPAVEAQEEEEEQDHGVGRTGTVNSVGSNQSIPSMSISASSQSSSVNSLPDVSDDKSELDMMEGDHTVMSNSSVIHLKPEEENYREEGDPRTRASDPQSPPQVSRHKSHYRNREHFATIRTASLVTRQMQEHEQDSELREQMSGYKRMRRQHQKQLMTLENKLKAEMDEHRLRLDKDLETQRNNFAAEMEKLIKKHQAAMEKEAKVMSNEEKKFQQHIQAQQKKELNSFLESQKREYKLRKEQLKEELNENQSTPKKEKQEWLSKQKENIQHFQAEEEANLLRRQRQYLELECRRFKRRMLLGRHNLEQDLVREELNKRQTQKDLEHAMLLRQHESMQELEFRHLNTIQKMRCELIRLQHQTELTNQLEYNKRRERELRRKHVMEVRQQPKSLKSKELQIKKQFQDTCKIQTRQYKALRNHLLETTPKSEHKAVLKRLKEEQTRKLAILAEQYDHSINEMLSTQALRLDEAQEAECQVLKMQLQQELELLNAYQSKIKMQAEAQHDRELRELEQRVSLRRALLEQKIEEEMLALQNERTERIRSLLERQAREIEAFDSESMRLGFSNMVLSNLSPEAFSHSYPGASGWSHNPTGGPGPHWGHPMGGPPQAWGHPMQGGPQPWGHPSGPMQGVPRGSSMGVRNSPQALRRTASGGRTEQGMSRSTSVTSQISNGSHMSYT
# assay: radiometric filter-binding kinase assay, Kinase HotSpot
# assayConditions: compound 0.5 µM; ATP 10 µM
Note: unit % is implicit; provide only the numeric part.

Prompt line: Tell us which residual activity value is on record for O=C(NC(NC(=S)Nc1ccc(F)c([N+](=O)[O-])c1)C(Cl)(Cl)Cl)C(c1ccccc1)c1ccccc1 (stereo not given)
Response line: 104

Prompt line: Answer with reported residual activity of CC(C)(C)c1nc2c3ccc(F)cc3c3c(=O)[nH]ccc3c2[nH]1
Response line: 86.9

Prompt line: Report residual activity, nothing else, for this compound: COc1ccc(-c2cnc3c(-c4ccsc4)cnn3c2)cc1
Response line: 105

Prompt line: For the compound NC(=O)c1ccc(N(C(N)=O)c2c(F)cccc2F)nc1-c1ccc(F)cc1F , report residual activity.
Response line: 96.2

Prompt line: Give residual activity for the following compound: CCCNC(=O)Nc1ccc(Oc2ncnc3cc(OC)c(OC)cc23)cc1Cl
Response line: 92.2

Prompt line: Specify measured residual activity for CCN1/C(=C/C(C)=O)Sc2ccc(OC)cc21 .
Response line: 92.4

Prompt line: Return residual activity for the following compound: O=C1Nc2cc(Br)ccc2/C1=C1/Nc2ccccc2/C1=N\O
Response line: 98.5

Prompt line: For the compound CC(C)[C@H](CO)Nc1nc(Nc2cccc(Cl)c2)c2ncn(C(C)C)c2n1 , report residual activity.
Response line: 95.4

Prompt line: Respond only with residual activity recorded for Nc1nc(Nc2ccc(S(N)(=O)=O)cc2)nn1C(=O)c1c(F)cccc1F
Response line: 18.8

Prompt line: Query residual activity for CS(=O)c1ccc(-c2nc(-c3ccc(F)cc3)c(-c3ccncc3)[nH]2)cc1 (stereo not given)
Response line: 97.9

Prompt line: Identify measured residual activity associated with Cc1ccc(NC(=O)c2ccc(CN3CCN(C)CC3)cc2)cc1Nc1nc(-c2cccnc2)cs1
Response line: 98.5

Prompt line: Output residual activity of Oc1ccc(-c2nc(-c3ccc(F)cc3)c(-c3ccncc3)[nH]2)cc1
Response line: 98.5

Prompt line: Input CC(C)n1cnc2c(Nc3cccc(Cl)c3)nc(NCCO)nc21 , output reported residual activity.
Response line: 94.4

Prompt line: Name the recorded residual activity of the compound listed here: CSc1nc(-c2ccc(F)cc2)c(-c2ccnc(NC(C)c3ccccc3)c2)[nH]1 (stereo not given)
Response line: 79.9

Prompt line: Tell me residual activity reported for Cc1cc2ncc(-c3ccccc3)nc2cc1C
Response line: 94.3
